# ASSAY_OVERVIEW: Luminescence data for pairs of compounds absorbing at the same wavelength and emitting at different wavelengths
# Assay type: physicochemical
# RECORDED_CONDITIONS: 405 nm
QUANTITY_NAME: Absorption % Abs at 405 nm (%)
Numbers only, in %.

>>> value_measured("CCCCCOc1cc2c3cc(OCCCCC)c(OCCCCC)cc3c3c(cc(OCCCCC)c4oc(-c5ccc(C#N)cc5)nc43)c2cc1OCCCCC [Compound 12]")
14
>>> value_measured("CCCCCOc1cc2c3cc(OCCCCC)c(OCCCCC)cc3c3c(cc(OCCCCC)c4oc(-c5ccc(N(C)C)cc5)nc43)c2cc1OCCCCC [Compound 22]")
2
>>> value_measured("CCCCCOc1cc2c3cc(OCCCCC)c(OCCCCC)cc3c3c(cc(OCCCCC)c4oc(-c5ccc(OC)cc5)nc43)c2cc1OCCCCC [Compound 45]")
0

Continue with the next compound.
The reported Absorption % Abs at 405 nm of the compound CCCCCOc1cc2c3cc(OCCCCC)c(OCCCCC)cc3c3c(cc(OCCCCC)c4oc(-c5ccc6ccccc6c5)nc43)c2cc1OCCCCC [Compound 3] was 7
